- Target entity: T1, human GLP-1 receptor (human), P43220
- T1 chain: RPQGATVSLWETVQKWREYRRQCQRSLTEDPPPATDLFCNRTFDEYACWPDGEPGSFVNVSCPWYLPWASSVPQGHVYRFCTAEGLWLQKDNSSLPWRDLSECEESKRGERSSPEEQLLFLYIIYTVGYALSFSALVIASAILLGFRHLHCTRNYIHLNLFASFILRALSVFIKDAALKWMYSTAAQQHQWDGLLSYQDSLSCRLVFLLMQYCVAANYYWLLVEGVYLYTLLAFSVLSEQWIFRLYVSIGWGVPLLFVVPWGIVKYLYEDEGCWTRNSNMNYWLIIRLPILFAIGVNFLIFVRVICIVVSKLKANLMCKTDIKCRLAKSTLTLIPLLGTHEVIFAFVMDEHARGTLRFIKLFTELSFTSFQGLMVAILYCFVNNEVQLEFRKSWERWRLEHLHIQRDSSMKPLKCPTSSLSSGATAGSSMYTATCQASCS
- Experiment description: radioligand competition SPA, HEK293 membranes
*1 amine or outer side, *2 acyl side, *3 side chain or, on linkers, in order; H or OH if unused. Where no end group is shown, it is not given here. Side-chain parts run from the residue outwards. [ ]: non-standard residue; d: D form. The star is where a group is joined. C20 diacid = O=C(O)CCCCCCCCCCCCCCCCCCC(=O)*; γGlu = O=C(O)[C@H](CCC(=O)[*:2])N[*:1]; αMeL = CC(C)C[C@](C)(N)C(=O)O; αMeK = C[C@](N)(CCCCN)C(=O)O; AEEA = NCCOCCOCC(=O)O; Aib = CC(C)(N)C(=O)O
// assign Yes if Ki falls strictly below 10 nM, else No (ties count as No)

These solved cases illustrate the format of a correct answer.
Binder: Y[Aib]QGTFTSDYSILLDKK([AEEA-γGlu-C20 diacid])AQ[Aib]AFIEYLLEGGPSSGAPPPS-NH2 [Example 18]
Class label: Yes
--
Binder: Y[Aib]QGTFTSDYSI[αMeL]LDKK([AEEA-AEEA-γGlu-C20 diacid])AQ[αMeK]AFIEYLLEGGPSSGAPPPS-NH2 [Example 3]
Class label: Yes
--
Binder: Y[Aib]QGTFTSDYSI[αMeL]LDKK([AEEA-γGlu-C20 diacid])AQHAFIEYLLEGGPSSGAPPPS-NH2 [Example 10]
Class label: No

Request: Lab note: confirm whether the reported Ki for this binder is below 10 nM, equality not counting. binder: Y[Aib]QGTFTSDYSILLDKK([AEEA-AEEA-γGlu-C20 diacid])AQ[Aib]AFIEYLLEGGPSSGAPPPS-NH2 [Example 16]
Result: No

Request: Find out if reported Ki for Y[Aib]QGTFTSDYSI[αMeL]LDKK([AEEA-AEEA-γGlu-C20 diacid])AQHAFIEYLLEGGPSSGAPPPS-NH2 [Example 7] is less than 10 nM
Result: No

Request: Is Ki of Y[Aib]QGTFTSDYSI[αMeL]LDKK([AEEA-AEEA-γGlu-C20 diacid])AAQAFIEYLLEGGPSSGAPPPS-NH2 [Example 6] strictly below 10 nM?
Result: No
